Parameter: Spec Values. Scope: all listed entries.
# Tested on: MCL-1ΔNΔC
# Method Summary: High-throughput competitive FP binding screen, FITC-MCL-1 SAHB/MCL-1ΔNΔC interaction
# Experimental Parameters: selectivity for MCL-1ΔNΔC over BCL-XLΔC targeting (BCL-XL % Bound minus MCL-1 % Bound)

# Molecule, Spec Values
data = [
    ("CC(C)(C)c1cc(O)c2oc(=O)c(-c3nc(-c4ccccc4F)no3)cc2c1", 84.11),
    ("O=C1C=CC(=O)C(CCC2=CC(=O)C=CC2=O)=C1", 61.8),
    ("COC(=O)c1c(NC(=S)Nn2cnnc2)sc2c1CCC(C)C2 (centres unmarked)", 52.28),
    ("Cn1c(S)nnc1CNc1cccc(C(F)(F)F)c1", 47.12),
    ("O=C(Nc1ccccc1)C(C(F)(F)F)C(F)(F)F", 70.63),
    ("Cc1ccc(C)n1-c1cc(Cl)ccc1C(=O)O", 79.84),
    ("CC1(C)CC(=O)C(=Cc2cn(-c3ccccc3)nc2-c2cccs2)C(=O)C1", 47.55),
    ("O=C(OCC1O[C@H](OC(=O)c2cc(O)c(O)c(OC(=O)c3cc(O)c(O)c(O)c3)c2)[C@H](OC(=O)c2cc(O)c(O)c(OC(=O)c3cc(O)c(O)c(O)c3)c2)[C@@H](OC(=O)c2cc(O)c(O)c(OC(=O)c3cc(O)c(O)c(O)c3)c2)[C@@H]1OC(=O)c1cc(O)c(O)c(OC(=O)c2cc(O)c(O)c(O)c2)c1)c1cc(O)c(O)c(OC(=O)c2cc(O)c(O)c(O)c2)c1 (some centres unmarked) [Tannic Acid, reference compound]", 82.32),
    ("O=C(/C=C/c1ccco1)NCc1ccccc1", 45.66),
    ("CCN(CC)c1ccc(C2C(C#N)=C(N)N(c3cccc(C)c3)C3=C2C(=O)CCC3)cc1 (centres unmarked)", 45.46),
    ("O=c1cc(-c2ccccc2)oc2cc(O)c(O)c(O)c12 [drawing 161]", 93.84),
    ("Cc1ccc2[nH]c3nc(=S)[nH]nc3c2c1", 69.2),
    ("Oc1ccc2cc3c4cc(Br)ccc4nc-3oc2c1O", 76.69),
    ("Oc1ccc(C2Oc3ccccc3C3CC(c4ccccc4O)=NN32)cc1 (centres unmarked)", 45.43),
    ("Oc1ccc(CNc2ccccc2O)cc1", 53.12),
    ("CCc1ccc2c(c1)C1(NN=C(c3ccccc3)S1)C(=O)N2 (centres unmarked)", 55.23),
    ("Cc1ccc(CN(C)C(=O)c2ccccc2OCCOc2ccccc2)o1", 45.38),
    ("Clc1cccc2c(N3CCCCCC3)cnnc12", 63.59),
    ("COc1ccc(C2=CC(=O)C=CC2=O)cc1", 56.64),
    ("CC1=C(C)C/S(=N\\S(=O)(=O)c2ccc(Cl)cc2)N(S(=O)(=O)c2ccc(Cl)cc2)C1 (centres unmarked)", 49.76),
    ("O=C1C=CC(=O)C(CCCCCCC2=CC(=O)C=CC2=O)=C1", 59.34),
    ("Cc1ccc(C)c(S(=O)(=O)Nc2cc(Cl)c3oc(=O)sc3c2)c1", 61.36),
    ("O=C(/C=C/c1ccco1)NC(=S)Nc1ccccc1C(F)(F)F", 52.25),
    ("C=C/C(=C\\C)N(CC)S(=O)(=O)c1ccc(Oc2ccc(-n3ccnc3)cc2)nc1", 51.73),
    ("O=C(O)c1cccc(-c2ccc(/C=C3\\Sc4ccccc4C3=O)o2)c1", 64.25),
    ("c1coc(C2Nc3cccc4cccc(c34)N2)c1", 57.32),
    ("O=C(CSc1nnc(C2CC2)n1Cc1ccco1)c1cccc(Cl)c1", 47.06),
    ("CCCCc1c(C)sc(NC(=S)Nn2cnnc2)c1C(=O)OCC", 64.95),
    ("O=C(/C=C/c1ccco1)Nc1cccc(-c2nc3ccccc3o2)c1", 45.91),
    ("Cc1nc(COC(=O)c2cc(O)c3ccccc3c2O)cs1", 61.73),
    ("CCN(CC)S(=O)(=O)c1ccc(-c2ccc(/C=N/N=C3\\NC(=O)C(CC(=O)Nc4ccccc4)S3)o2)cc1 (centres unmarked)", 56.3),
    ("O=c1c(O)c(-c2ccc(O)c(O)c2)oc2cc(O)cc(O)c12 [drawing 167]", 88.65),
    ("CSc1sc(C(=O)/C=C/N(C)C)c(-c2cccs2)c1C#N", 50.48),
    ("CC1=C(C#N)C(=O)N(CCc2ccccc2)C(=O)/C1=C/c1ccc(-c2ccc(S(N)(=O)=O)cc2)o1", 90.31),
    ("Cc1ccc(/C=C2\\C(=O)N(c3ccccc3)c3ccccc32)o1", 47.36),
    ("CCn1c(-c2ccccc2)cnc1S", 51.73),
    ("O=C(/C=C/c1ccco1)Nc1ccc2ccccc2c1", 48.07),
    ("CC(C)CNC(=O)CCc1nc(-c2ccccc2)no1", 54.73),
]
